compounds and their reported EC50
- System: A431 cells
- assay-details: Cell viability assay (Cell TiterGlo), A431 cells
- Assay type: cell-based
- measurement-setup: Homo sapiens, A-431, 24 hours
Write the number in nM without appending the unit.

Examples from the recorded data:
{"compound": "Fc1cncc(Cn2ccc3ccc(-c4ccnc5[nH]c(C6=CCNCC6)cc45)nc32)c1 [Example 51]", "target-or-system": "A431 cells", "measured-value": 11}
{"compound": "Fc1cccc(CN2CCc3ccc(-c4ccnc5[nH]c(C6CCNCC6)cc45)cc32)c1 [Example 1]", "target-or-system": "A431 cells", "measured-value": 550}

Task: Please look at this compound and report its EC50: OCC(O)CN1CC=C(c2cc3c(-c4ccc5ncn(Cc6cccc(F)c6)c5c4)ccnc3[nH]2)CC1 (stereo not drawn) [Example 25]
Result: 43

Task: Please report EC50 for the following compound: CC(=O)Nc1ccc(CN2CC=C(c3cc4c(-c5ccc6ncn(Cc7cccc(F)c7)c6c5)ccnc4[nH]3)CC2)cc1 [Example 26]
Result: 6

###

- target-or-system: CDK9/Cyclin T1 (Homo sapiens)
- assay-details: CDK9 enzyme activity, LANCE ULight TR-FRET kinase assay
- measurement-setup: 1000 μM ATP, 4 nM CDK9/Cyclin T1, 30 minutes
Recorded log10(IC50), one value per entry.
# values: log10(IC50), units nM

Please review the following examples before continuing.
{"compound": "Fc1cccc(CN2CCc3ccc(-c4ccnc5[nH]c(C6CCNCC6)cc45)cc32)c1", "log10(IC50)": 1.81}
{"compound": "CNC(=O)N1CCC(c2cc3c(-c4ccc5ncn(Cc6cncc(F)c6)c5c4)ccnc3[nH]2)CC1", "log10(IC50)": 1.97}
{"compound": "c1cc(-c2cnc3ccn(CC4CCOCC4)c3c2)c2cc(C3CCNCC3)[nH]c2n1", "log10(IC50)": 1.93}

Task: Please report log10(IC50) for the following compound: "CS(=O)(=O)N1CCC(c2cc3c(-c4cc5c(cc4F)ncn5CC4CCOCC4)ccnc3[nH]2)CC1"
Result: 1.74

Task: Item N#Cc1cn(Cc2cccc(F)c2)c2cc(-c3ccnc4[nH]c(C5CCN(CC(O)CO)CC5)cc34)ccc12 (stereo not shown) : provide log10(IC50)
Result: 1.26

Task: Respond only with log10(IC50) recorded for "Fc1cccc(Cn2cnc3ccc(-c4ccnc5[nH]c(C6CCNCC6)cc45)cc32)c1"
Result: 0.95

Task: Give the reported value of log10(IC50) for this record: "N#Cc1cn(Cc2ccccc2)c2cc(-c3ncnc4[nH]c(C5=CCNCC5)cc34)ccc12"
Result: 1.20

Task: Output measured log10(IC50) for this item: N#Cc1cn(Cc2ccccc2)c2cc(-c3ncnc4[nH]c(C5=CCN(CC(O)CO)CC5)cc34)ccc12 (stereo not shown)
Result: 1.48

Task: Give log10(IC50) for the following compound: "CS(=O)(=O)N1CC=C(c2cc3c(-c4ccc5nnn(CC6CCOCC6)c5c4)ccnc3[nH]2)CC1"
Result: 1.87

Task: Please indicate log10(IC50) recorded for "Fc1cccc(Cn2cnc3ccc(-c4ccnc5[nH]c(C6=CCNCC6)cc45)cc32)c1"
Result: 1.15

Task: Let me know recorded log10(IC50) for "CNC(=O)N1CCC(c2cc3c(-c4ccc5ccn(Cc6cncc(F)c6)c5n4)ccnc3[nH]2)CC1" , thanks.
Result: 1.04

Task: Please supply the value of reported log10(IC50) for the item "CNC(=O)N1CCC(c2cc3c(-c4cnc5ccn(Cc6cncc(F)c6)c5c4)ccnc3[nH]2)CC1"
Result: 1.36

###

- Test system: H929 cells
- assay-details: Cell viability assay (Cell TiterGlo), H929 cells
- Type: cell-based, human
- measurement-setup: Homo sapiens, NCI-H929, 24 hours
The following compounds are shown together with reported pEC50 values.
Quick note: pEC50 values are minus log10 of concentrations in mol/L.

{"compound": "CC(=O)Nc1ccc(CN2CC=C(c3cc4c(-c5ccc6ncn(Cc7cccc(F)c7)c6c5)ccnc4[nH]3)CC2)cc1", "measured-value": 7.59}
{"compound": "CS(=O)(=O)N1CCC(c2cc3c(-c4ccc5ncn(Cc6cccc(F)c6)c5c4)ccnc3[nH]2)CC1", "measured-value": 7.82}
{"compound": "Fc1cccc(Cn2cnc3ccc(-c4ccnc5[nH]c(C6CCNCC6)cc45)cc32)c1", "measured-value": 7.36}

Task: Give the reported value of pEC50 for this record: "Fc1cccc(Cn2cnc3ccc(-c4ccnc5[nH]c(C6=CCNCC6)cc45)cc32)c1"
Result: 8.15

Task: In one line, give reported pEC50 of the entry "Fc1cccc(Cn2ccc3ncc(-c4ccnc5[nH]c(C6=CCNCC6)cc45)cc32)c1" .
Result: 7.28

Task: Respond only with pEC50 recorded for "COC(=N)c1cn(Cc2cccc(F)c2)c2cc(-c3ccnc4[nH]c(C5CCNCC5)cc34)c(F)cc12"
Result: 6.23

Task: Name the recorded pEC50 of the item "O=C(CO)N1CCC(c2cc3c(-c4cc5c(cc4F)ncn5CC4CCOCC4)ccnc3[nH]2)CC1" in your answer.
Result: 5.73

Task: Tell me its pEC50 given "Fc1cncc(Cn2ccc3ncc(-c4ccnc5[nH]c(C6CCNCC6)cc45)cc32)c1" as the entry.
Result: 6.77

###

- Test system: H929 cells
- assay-details: Cell viability assay (Cell TiterGlo), H929 cells
- Type: cell-based, human
- measurement-setup: Homo sapiens, NCI-H929, 24 hours
measurement-kind: EC50 (nM)
// note: answer is a bare numeric in nM

Known results for molecules:
{"molecule": "Fc1cncc(Cn2cnc3ccc(-c4ccnc5[nH]c(C6CCNCC6)cc45)cc32)c1 [Example 12]", "measurement-kind": "EC50", "units-label": "nM", "measured-value": 75}
{"molecule": "CNC(=O)N1CCC(c2cc3c(-c4ccc5ncn(Cc6cncc(F)c6)c5c4)ccnc3[nH]2)CC1 [Example 16]", "measurement-kind": "EC50", "units-label": "nM", "measured-value": 180}
{"molecule": "Fc1cccc(Cn2ccc3cc(F)c(-c4ccnc5[nH]c(C6CCNCC6)cc45)cc32)c1 [Example 9]", "measurement-kind": "EC50", "units-label": "nM", "measured-value": 100}
{"molecule": "c1cc(-c2ccc3ccn(CC4CCOCC4)c3n2)c2cc(C3CCNCC3)[nH]c2n1 [Example 44]", "measurement-kind": "EC50", "units-label": "nM", "measured-value": 1100}

As a next step, examine the molecule that follows.
Task: Report measured EC50; entry is CNC(=O)N1CC=C(c2cc3c(-c4ccc5ccn(Cc6cncc(F)c6)c5n4)ccnc3[nH]2)CC1 [Example 54]
Result: 210

###

- System: A431 cells
- assay-details: Cell viability assay (Cell TiterGlo), A431 cells
- Format: cell-based
- measurement-setup: Homo sapiens, A-431, 24 hours
Categorize each record by its EC50 using low bracket: < 10 nM; middle bracket: ≥ 10 nM and < 50 nM; high bracket: ≥ 50 nM

{"molecule": "N#Cc1cn(Cc2cccc(F)c2)c2cc(-c3ccnc4[nH]c(C5CCNCC5)cc34)ccc12 [Example 8]", "group": "high bracket"}

Task: Assign a category based on measured EC50 for N#Cc1cn(Cc2ccccc2)c2cc(-c3ccnc4[nH]c(C5CCNCC5)cc34)ccc12 [Example 3] and give only the class name.
Result: middle bracket

Task: Which category fits this record: CNC(=O)N1CC=C(c2cc3c(-c4ccc5ncn(Cc6cccc(F)c6)c5c4)ccnc3[nH]2)CC1 [Example 24]
Result: middle bracket

Task: Assign a category based on measured EC50 for CS(=O)(=O)N1CC=C(c2cc3c(-c4ccc5ncn(Cc6cccc(F)c6)c5c4)ccnc3[nH]2)CC1 [Example 15] and give only the class name.
Result: low bracket

###

- target-or-system: CDK9/Cyclin T1 (Homo sapiens, UniProt P50750)
- Sequence (P50750 whole entry): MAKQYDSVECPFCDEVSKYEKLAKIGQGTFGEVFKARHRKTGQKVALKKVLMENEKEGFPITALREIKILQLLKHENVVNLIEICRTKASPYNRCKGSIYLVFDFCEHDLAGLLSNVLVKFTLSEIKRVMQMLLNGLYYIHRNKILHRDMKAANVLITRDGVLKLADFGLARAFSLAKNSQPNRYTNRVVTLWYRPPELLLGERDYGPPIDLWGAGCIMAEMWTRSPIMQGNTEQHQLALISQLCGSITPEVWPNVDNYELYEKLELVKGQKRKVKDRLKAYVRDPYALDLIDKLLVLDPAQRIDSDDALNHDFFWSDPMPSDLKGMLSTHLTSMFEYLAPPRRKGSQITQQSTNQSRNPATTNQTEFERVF
- Sequence (O60563 whole entry partner): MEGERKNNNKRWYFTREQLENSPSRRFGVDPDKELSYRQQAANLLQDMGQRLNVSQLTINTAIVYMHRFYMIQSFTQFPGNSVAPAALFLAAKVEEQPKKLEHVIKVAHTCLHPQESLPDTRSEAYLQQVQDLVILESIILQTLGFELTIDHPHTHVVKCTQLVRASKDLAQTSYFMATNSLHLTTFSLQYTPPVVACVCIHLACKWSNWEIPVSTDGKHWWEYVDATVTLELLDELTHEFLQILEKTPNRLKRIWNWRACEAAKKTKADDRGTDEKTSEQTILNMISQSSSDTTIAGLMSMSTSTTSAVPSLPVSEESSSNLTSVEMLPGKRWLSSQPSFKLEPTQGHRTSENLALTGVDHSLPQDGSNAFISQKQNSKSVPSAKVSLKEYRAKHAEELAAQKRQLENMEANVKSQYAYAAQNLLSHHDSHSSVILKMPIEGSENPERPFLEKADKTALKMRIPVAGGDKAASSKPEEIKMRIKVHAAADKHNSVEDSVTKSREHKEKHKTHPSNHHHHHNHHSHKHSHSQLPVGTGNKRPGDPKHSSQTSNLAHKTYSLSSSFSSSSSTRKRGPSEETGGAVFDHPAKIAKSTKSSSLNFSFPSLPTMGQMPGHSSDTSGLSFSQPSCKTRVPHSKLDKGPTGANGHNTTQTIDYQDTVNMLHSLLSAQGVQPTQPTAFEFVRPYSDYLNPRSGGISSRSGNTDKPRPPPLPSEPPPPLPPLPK
- assay-details: CDK9 enzyme activity, LANCE ULight TR-FRET kinase assay
- measurement-setup: 1000 μM ATP, 4 nM CDK9/Cyclin T1, 30 minutes
measurement-kind: pIC50
Just so you know, pIC50 here is -log10 of the concentration in molar units; reply with that number alone.

{"compound": "Fc1cncc(Cn2ccc3ncc(-c4ccnc5[nH]c(C6CCNCC6)cc45)cc32)c1", "pIC50": 7.59}

Task: Note down pIC50 recorded for "N#Cc1cn(Cc2cccc(F)c2)c2cc(-c3ccnc4[nH]c(C5CCNCC5)cc34)c(F)cc12"
Result: 7.26

Task: Return reported pIC50. Input compound: "Fc1cncc(Cn2ccc3ccc(-c4ccnc5[nH]c(C6=CCNCC6)cc45)nc32)c1"
Result: 7.85

Task: Report pIC50, nothing else, for this compound: "Fc1cccc(Cn2ccc3ncc(-c4ccnc5[nH]c(C6=CCNCC6)cc45)cc32)c1"
Result: 7.77

###

Parameter: EC50. Scope: all listed entries.
- System: H929 cells
- assay-details: Cell viability assay (Cell TiterGlo), H929 cells
- Format: cell-based, human
- measurement-setup: Homo sapiens, NCI-H929, 24 hours
Supply the numeric figure in nM, leaving out any unit text.

Worked cases, EC50 given:
{"compound": "CS(=O)(=O)N1CCC(c2cc3c(-c4ccc5c(C#N)cn(Cc6cccc(F)c6)c5c4)ccnc3[nH]2)CC1", "EC50 [nM]": 178}
{"compound": "CS(=O)(=O)N1CC=C(c2cc3c(-c4ccc5nnn(CC6CCOCC6)c5c4)ccnc3[nH]2)CC1", "EC50 [nM]": 200}
{"compound": "Fc1cccc(CN2CCc3ccc(-c4ccnc5[nH]c(C6CCNCC6)cc45)cc32)c1", "EC50 [nM]": 490}
{"compound": "OCC(O)CN1CCC(c2cc3c(-c4cc5c(cc4F)ncn5CC4CCOCC4)ccnc3[nH]2)CC1 (stereo not shown)", "EC50 [nM]": 1110}
{"compound": "Fc1cncc(Cn2ccc3ncc(-c4ccnc5[nH]c(C6=CCNCC6)cc45)cc32)c1", "EC50 [nM]": 120}

Here is another compound to look at.
Task: Return EC50 (reported value) for this compound: "CS(=O)(=O)N1CCC(c2cc3c(-c4cc5c(cc4F)ncn5CC4CCOCC4)ccnc3[nH]2)CC1"
Result: 550
